target_or_system: Fuc(a1-2)Gal6S(b1-3)GlcNAc6S
assay_procedure: glycan array binding signal (z-score within array); higher = stronger binding
recorded_conditions: glycan notation: IUPAC condensed, linker removed
About 410 targets per protein were measured; listed, in parts, are those with the strongest signals and a random draw of the rest.
Class field: derived from glycan array binding signal (z-score); ranges one (below -0.06), two (-0.06 to below 2), three (2 or more)

Sp8391B-bot-388-20-388 (Bacteroides ovatus) (protein) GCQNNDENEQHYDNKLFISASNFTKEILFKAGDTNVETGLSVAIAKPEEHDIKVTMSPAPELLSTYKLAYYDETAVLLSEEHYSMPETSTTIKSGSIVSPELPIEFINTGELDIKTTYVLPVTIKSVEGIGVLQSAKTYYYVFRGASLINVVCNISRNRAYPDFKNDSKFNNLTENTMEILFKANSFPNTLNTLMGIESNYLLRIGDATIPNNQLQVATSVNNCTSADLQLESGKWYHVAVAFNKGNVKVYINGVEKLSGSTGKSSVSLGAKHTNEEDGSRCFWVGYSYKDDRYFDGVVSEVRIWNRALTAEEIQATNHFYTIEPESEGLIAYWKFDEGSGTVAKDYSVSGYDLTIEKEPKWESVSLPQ
one

Here's the next entry for you.
Band for the recorded glycan array binding signal (z-score) of ArathEULS3 TAP (Arabidopsis thaliana) (protein) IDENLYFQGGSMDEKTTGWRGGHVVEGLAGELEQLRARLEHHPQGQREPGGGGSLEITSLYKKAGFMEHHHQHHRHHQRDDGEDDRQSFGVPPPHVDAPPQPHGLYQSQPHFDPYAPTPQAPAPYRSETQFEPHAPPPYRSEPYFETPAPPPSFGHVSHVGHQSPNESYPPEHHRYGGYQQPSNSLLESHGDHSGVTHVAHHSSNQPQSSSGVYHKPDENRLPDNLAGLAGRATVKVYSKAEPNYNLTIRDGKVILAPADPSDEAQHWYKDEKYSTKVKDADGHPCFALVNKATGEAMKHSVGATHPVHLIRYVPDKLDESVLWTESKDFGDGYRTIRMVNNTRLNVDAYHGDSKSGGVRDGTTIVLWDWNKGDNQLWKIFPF ? one

The measurements presented in this section are drawn from the supplement of paper PMC8728848.
